# target or system: D(1A) dopamine receptor (Homo sapiens) (UniProt P21728)
# Sequence (P21728 whole entry, looked up): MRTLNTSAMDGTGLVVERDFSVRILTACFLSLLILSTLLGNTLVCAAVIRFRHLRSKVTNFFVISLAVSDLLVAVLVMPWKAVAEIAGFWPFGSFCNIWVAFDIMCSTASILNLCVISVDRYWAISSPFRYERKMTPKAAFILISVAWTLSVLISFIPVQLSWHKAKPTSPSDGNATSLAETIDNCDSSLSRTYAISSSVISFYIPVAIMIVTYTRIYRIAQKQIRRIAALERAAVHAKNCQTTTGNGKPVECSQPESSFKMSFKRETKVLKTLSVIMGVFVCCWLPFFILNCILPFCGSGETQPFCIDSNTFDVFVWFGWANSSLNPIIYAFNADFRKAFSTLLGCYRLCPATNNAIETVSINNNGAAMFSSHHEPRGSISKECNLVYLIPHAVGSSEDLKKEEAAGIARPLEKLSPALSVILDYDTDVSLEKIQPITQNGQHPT
# assay name: Antagonist of Human D 1 Dopamine Receptor: qHTS; also: % is scaled to controls: 0 for no effect and ±100 for the full control effect
# condition parameters: HEK293 TREx D1 cells, calcium flux, dopamine EC80; at 10 µM
Among all 360,000 compounds or so, about 11,000 (3.1%) were called active. Rule as the data show it: active = activity change below about -30%; inactive = the rest. Only a selection was taken, and actives are over-represented in it overall.
Possible outcomes: 1 (active), 0 (inactive)

compound	qualitative label
CCn1c(Cc2ccc(OC)cc2)nnc1SCC(=O)Nc1ccc(N2CCOCC2)cc1	0
Cc1cccc2c1-c1sc(C(=O)NCCCN3CCc4ccccc4C3)cc1CO2	1
Cc1ccc(C)c(S(=O)(=O)N2CC(=O)Nc3ccccc32)c1	1
CCCN(CCC)S(=O)(=O)c1ccc(C(=O)Nc2sc3c(c2C(=O)OC)CCN(CC)C3)cc1	0
Cn1c(=O)c(=O)n(C)c2cc(S(=O)(=O)NCCN3CCN(c4ccccc4F)CC3)ccc21	1
Cc1ccc2nc(COc3cccc(NC(=O)c4ccccc4Cl)c3)cc(=O)n2c1	0
Cc1ccc(O)c(NC(=O)CCS(=O)(=O)c2nc(-c3ccc4c(c3)OCO4)cc(C(F)(F)F)n2)c1	0
CCN(Cc1ccccc1)C(=O)c1cn(-c2cccc(OC)c2)c(=O)c2ccccc12	0
CCOC(=O)N1CCN(c2c(NCCN3CCN(c4ccccc4F)CC3)c(=O)c2=O)CC1	0
Cc1ccc(Cl)cc1N1CCN(S(=O)(=O)c2cc3[nH]c(=O)c(=O)[nH]c3cc2C)CC1	0
CCOC(=O)c1cc(-c2ccccc2)n(CCC(=O)Nc2ccccc2CC)c1C	0
CCOc1ccccc1C(=O)NC1(C(F)(F)F)NC(=O)N(CCc2ccc(OC)c(OC)c2)C1=O (stereo not given)	0
COc1ccccc1/C=C/c1nc(C#N)c(NC(C)c2ccccc2)o1 (stereo not given)	0
Cc1ccc(C)c(NC(=O)Cn2ccn(-c3ccc(F)cc3)c(=O)c2=O)c1	0
Cc1ccc(C)c(S(=O)(=O)N2CCN(C(=O)Nc3ccccc3)CC2)c1	0
c1ccc(C2CNCc3c2ccc2ccccc32)cc1 (stereo not given)	1
CCn1c(Cc2ccccc2)nnc1SCC(=O)Nc1ccccc1	1
CCn1c(CNC(=O)c2ccc(OC)c(OC)c2)nnc1SCC(=O)Nc1ccccc1	0
CCOC(=O)c1scc(-c2ccccc2)c1S(=O)(=O)Nc1ccccc1F	0
COc1cc(OC)cc(-c2nc3nc(C)c(CCC(=O)Nc4ccc(C)cc4)c(C)n3n2)c1	0
